Ref: paper PMC3018326

Give pKd for every item shown.
Target: TcFPPS (Trypanosoma cruzi, UniProt Q95WL3)
Sequence (Q95WL3 1-362): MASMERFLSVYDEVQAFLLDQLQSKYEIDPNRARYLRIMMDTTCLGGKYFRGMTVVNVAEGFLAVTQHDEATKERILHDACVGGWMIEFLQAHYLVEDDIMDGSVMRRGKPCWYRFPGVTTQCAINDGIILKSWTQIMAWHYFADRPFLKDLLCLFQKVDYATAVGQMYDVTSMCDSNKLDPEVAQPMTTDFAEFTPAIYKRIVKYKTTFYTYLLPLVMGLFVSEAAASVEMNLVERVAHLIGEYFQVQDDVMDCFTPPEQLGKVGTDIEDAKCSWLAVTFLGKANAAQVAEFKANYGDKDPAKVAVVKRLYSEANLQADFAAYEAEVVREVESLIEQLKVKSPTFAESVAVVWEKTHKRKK
Assay: isothermal titration calorimetry, two-sequential-site fit
Notebook: values listed as pKd are -log10 of the concentration (mol/L).

What does the data say about its pKd? Entry: O=P(O)(O)C(O)(Cn1ccnc1)P(=O)(O)O [91B, zoledronate]
7.54

Also need O=P(O)(O)C(O)(Cc1cccnc1)P(=O)(O)O [Ris, risedronate] , thanks.
7.18

Also check O=P(O)(O)C(O)(Cc1cnc2ccccn12)P(=O)(O)O [261A, minodronate]
7.96
